- TARGET: Cdc7/ASK (Homo sapiens, UniProt O00311)
- ASSAY_NAME: Cdc7 Biochemical Assay Method 2: 384 well mobility shift assay (EZ Reader II), MCM2 peptide substrate
- Set-up: purchased
- CONDITION: 12.5 μM ATP, read-out: Biochemical Method 2 (pIC50) (converted)
Output label 1 for records whose IC50 is lower than 0.7 nM, label 0 for records at or above 0.7 nM.

COMPOUND | CLASS_LABEL
N[C@H]1CCCN(c2nc(-c3ccnc(F)c3)[nH]c(=O)c2Cl)C1 [Compound 317] | label 0
NC[C@H]1CCCN(c2nc(-c3ccnc(F)c3)[nH]c(=O)c2Cl)C1 [Compound 362] | label 0
C[C@H]1COCCN1c1nc(-c2ccncc2)[nH]c(=O)c1Cl [Compound 365] | label 0
CC(C)[C@H]1CN(c2nc(-c3ccncc3)[nH]c(=O)c2Br)CCN1 [Compound 408] | label 0
C[C@@H]1CNCCN1c1nc(-c2ccncc2)[nH]c(=O)c1Cl [Compound 364] | label 1

###

- TARGET: Cdc7/ASK (Homo sapiens, UniProt O00311)
- ASSAY_NAME: Cdc7 Biochemical Assay Method 1: 384 well ELISA, whole protein substrate MCM2, antibody against Phospho MCM2 (S53)
- Design: purchased
- CONDITION: 2 μM ATP, read-out: Biochemical Method 1 (pIC50) (converted)
Categories are defined by ranges of IC50, namely low group: < 3 nM; middle group: ≥ 3 nM and < 20 nM; high group: ≥ 20 nM

COMPOUND | CLASS_LABEL
O=c1[nH]c(-c2ccncc2)nc(N2CCN[C@H](C(F)(F)F)C2)c1Cl | middle group
Cc1cc(C(=O)N2CCC(c3nc(-c4ccncc4)[nH]c(=O)c3Cl)CC2)no1 | middle group
O=c1[nH]c(-c2ccncc2)nc(N2CCCN3CCC[C@@H]3C2)c1Cl | high group
O=C(c1ccccc1I)N1CCC(c2nc(-c3ccncc3)[nH]c(=O)c2Cl)CC1 | middle group
CCN1CCN(c2nc(-c3ccncc3)[nH]c(=O)c2Cl)CC1 | high group
O=c1[nH]c(-c2ccncc2)nc(N2CCNC(c3cccs3)C2)c1Cl (stereo not drawn) | middle group
CN(C)C1CCN(c2nc(-c3ccncc3)[nH]c(=O)c2Cl)C1 (stereo not drawn) | high group
CC(C)C1CN(c2nc(-c3ccnc(F)c3)[nH]c(=O)c2Cl)CCN1 (stereo not drawn) | middle group
O=c1[nH]c(-c2ccncc2)nc(N2CCN[C@@H](CO)C2)c1Cl | low group
CC(C)(C)N1CCCN(c2nc(-c3ccncc3)[nH]c(=O)c2Cl)CC1 | high group
CN(c1ccc(C(=O)N2CCC(c3nc(-c4ccncc4)[nH]c(=O)c3Cl)CC2)cc1)S(C)(=O)=O | middle group
O=c1[nH]c(-c2ccnc(F)c2)nc(N2CCNCC2)c1Cl | low group
O=c1[nH]c(-c2ccncc2)nc(N2CCOC(C(F)(F)F)C2)c1Cl (stereo not drawn) | middle group
C[C@@H]1CNCCN1c1nc(-c2ccncc2)[nH]c(=O)c1Cl | low group
N#CC1CCN(c2nc(-c3ccncc3)[nH]c(=O)c2Cl)CC1 | low group
O=C(N1CCN(c2nc(-c3ccncc3)[nH]c(=O)c2Cl)CC1)C(F)(F)F | middle group

###

- System: Cdc7 (pS53MCM2 levels in HCT116 cells)
- ASSAY_NAME: Cdc7 Cell Pharmacodynamics Assay Method 1: pS53MCM2 levels in HCT116 cells, 6 hours
- Assay type: cell-based
- CONDITION: Homo sapiens, HCT-116, 6 h, read-out: Biomarker Method 1 (pEC50) (converted)
Categories are defined by ranges of EC50, namely small value (below 90 nM), mid value (90 nM to below 800 nM), large value (800 nM or more)

MOLECULE | TARGET | CLASS_LABEL
O=c1[nH]c(-c2ccncc2)nc(N2CCCC(O)C2)c1Cl (stereo not drawn) | Cdc7 (pS53MCM2 levels in HCT116 cells) | large value
O=c1[nH]c(-c2ccncc2)nc(N2CCCN(CCO)CC2)c1Cl | Cdc7 (pS53MCM2 levels in HCT116 cells) | large value
N[C@@H]1CCCN(c2nc(-c3ccnc(F)c3)[nH]c(=O)c2Cl)C1 | Cdc7 (pS53MCM2 levels in HCT116 cells) | small value
CC(C)[C@H]1CNCCN1c1nc(-c2ccncc2)[nH]c(=O)c1Cl | Cdc7 (pS53MCM2 levels in HCT116 cells) | large value
O=c1[nH]c(-c2ccncc2)nc(N2CCNC3(CCC3)C2)c1Cl | Cdc7 (pS53MCM2 levels in HCT116 cells) | large value
CC(C)[C@H]1CN(c2nc(-c3ccncc3)[nH]c(=O)c2Cl)CCN1 | Cdc7 (pS53MCM2 levels in HCT116 cells) | small value
O=c1[nH]c(-c2ccncc2)nc(N2CCOC(c3ccccc3)C2)c1Cl (stereo not drawn) | Cdc7 (pS53MCM2 levels in HCT116 cells) | large value
O=c1[nH]c(-c2ccncc2)nc(N2CCCC(CO)C2)c1Cl (stereo not drawn) | Cdc7 (pS53MCM2 levels in HCT116 cells) | mid value
CC1CNCCN1c1nc(-c2ccncc2)[nH]c(=O)c1Cl (stereo not drawn) | Cdc7 (pS53MCM2 levels in HCT116 cells) | small value
C[C@H]1CN(c2nc(-c3ccnc(F)c3)[nH]c(=O)c2Cl)CCN1 | Cdc7 (pS53MCM2 levels in HCT116 cells) | small value
O=c1[nH]c(-c2ccncc2)nc(N2CCCN(CC(F)(F)F)CC2)c1Cl | Cdc7 (pS53MCM2 levels in HCT116 cells) | mid value
CC(C)(C)[C@H]1CN(c2nc(-c3ccncc3)[nH]c(=O)c2F)CCN1 | Cdc7 (pS53MCM2 levels in HCT116 cells) | small value
C[C@H]1CN(c2nc(-c3ccncc3)[nH]c(=O)c2Cl)CCN1 | Cdc7 (pS53MCM2 levels in HCT116 cells) | mid value
O=c1[nH]c(-c2ccncc2)nc(N2CCOCC2)c1Cl | Cdc7 (pS53MCM2 levels in HCT116 cells) | small value
O=C(N1CCCN(c2nc(-c3ccncc3)[nH]c(=O)c2Cl)CC1)C(F)(F)F | Cdc7 (pS53MCM2 levels in HCT116 cells) | mid value
O=c1[nH]c(-c2ccncc2)nc(N2CCN(c3cccc(F)c3)CC2)c1Cl | Cdc7 (pS53MCM2 levels in HCT116 cells) | mid value
O=c1[nH]c(-c2ccncc2)nc(N2CCN[C@@H](CO)C2)c1Cl | Cdc7 (pS53MCM2 levels in HCT116 cells) | large value

###

- TARGET: Cdc7/ASK (Homo sapiens)
- ASSAY_NAME: Cdc7 Biochemical Assay Method 1: 384 well ELISA, whole protein substrate MCM2, antibody against Phospho MCM2 (S53)
- Parameters: purchased
- CONDITION: 2 μM ATP, read-out: Biochemical Method 1 (pIC50) (converted)
- Experimental: This protocol describes a method for assaying Cdc7/ASK for activity. The assay is a 384 well ELISA assay, utilising a whole protein substrate (MCM2) and an antibody against Phospho MCM2 (S53). This site is thought to be specific to Cdc7/ASK phosphorylation and the assay has been validated using knockout mutants. […] Stop the reaction by adding 20 μL Stop Solution to all wells and record Absorbance on a Pherastar plate reader. […] Z' factors were determined for each plate tested and were all above 0.5. […]
// reported IC50 for each item listed
EXPERIMENTAL_READOUT: IC50 (nM)

COMPOUND | READOUT_NUMBER
O=c1[nH]c(-c2ccnc(Cl)c2)nc(C2CCOCC2)c1Cl [Compound 23] | 19.1
CC1(C)CN(c2nc(-c3ccncc3)[nH]c(=O)c2Cl)CCO1 [Compound 121] | 5.62
CC1CN(c2nc(-c3ccncc3)[nH]c(=O)c2Cl)CC(C)N1 (stereo not drawn) [Compound 108] | 174
O=c1[nH]c(-c2ccncc2)nc(N2CCCN(CC(F)(F)F)CC2)c1Cl [Compound 142] | 15.5
N#Cc1cccc(C(=O)N2CCC(c3nc(-c4ccncc4)[nH]c(=O)c3Cl)CC2)c1 [Compound 48] | 2.57
O=c1[nH]c(-c2ccnc(C(F)(F)F)c2)nc(C2CCOCC2)c1Cl [Compound 24] | 1020
COCCC1CN(c2nc(-c3ccncc3)[nH]c(=O)c2Cl)CCO1 (stereo not drawn) [Compound 99] | 85.1
O=c1[nH]c(-c2ccncc2)nc(C2CNCCO2)c1Cl (stereo not drawn) [Compound 20] | 347
CC1(c2nc(-c3ccnc(F)c3)[nH]c(=O)c2Cl)CCOCC1 [Compound 10] | 3.02

###

- TARGET: Cdc7/Dbf4 (Homo sapiens)
- Sequence (O00311 whole entry): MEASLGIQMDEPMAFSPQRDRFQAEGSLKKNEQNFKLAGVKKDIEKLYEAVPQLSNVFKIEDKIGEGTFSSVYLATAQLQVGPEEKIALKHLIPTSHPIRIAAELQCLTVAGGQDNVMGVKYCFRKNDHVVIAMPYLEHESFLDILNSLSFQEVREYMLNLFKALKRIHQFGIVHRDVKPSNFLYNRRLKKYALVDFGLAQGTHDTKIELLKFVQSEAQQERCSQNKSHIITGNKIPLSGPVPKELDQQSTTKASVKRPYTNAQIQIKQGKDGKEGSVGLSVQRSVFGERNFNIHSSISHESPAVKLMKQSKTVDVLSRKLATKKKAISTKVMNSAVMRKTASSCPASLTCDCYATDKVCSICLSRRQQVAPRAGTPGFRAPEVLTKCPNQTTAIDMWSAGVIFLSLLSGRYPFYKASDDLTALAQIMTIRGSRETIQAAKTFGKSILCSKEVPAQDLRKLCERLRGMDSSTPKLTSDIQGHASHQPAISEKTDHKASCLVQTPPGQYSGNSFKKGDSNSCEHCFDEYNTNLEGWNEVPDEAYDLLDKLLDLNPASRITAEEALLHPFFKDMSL
- Sequence (Q9UBU7 whole entry partner): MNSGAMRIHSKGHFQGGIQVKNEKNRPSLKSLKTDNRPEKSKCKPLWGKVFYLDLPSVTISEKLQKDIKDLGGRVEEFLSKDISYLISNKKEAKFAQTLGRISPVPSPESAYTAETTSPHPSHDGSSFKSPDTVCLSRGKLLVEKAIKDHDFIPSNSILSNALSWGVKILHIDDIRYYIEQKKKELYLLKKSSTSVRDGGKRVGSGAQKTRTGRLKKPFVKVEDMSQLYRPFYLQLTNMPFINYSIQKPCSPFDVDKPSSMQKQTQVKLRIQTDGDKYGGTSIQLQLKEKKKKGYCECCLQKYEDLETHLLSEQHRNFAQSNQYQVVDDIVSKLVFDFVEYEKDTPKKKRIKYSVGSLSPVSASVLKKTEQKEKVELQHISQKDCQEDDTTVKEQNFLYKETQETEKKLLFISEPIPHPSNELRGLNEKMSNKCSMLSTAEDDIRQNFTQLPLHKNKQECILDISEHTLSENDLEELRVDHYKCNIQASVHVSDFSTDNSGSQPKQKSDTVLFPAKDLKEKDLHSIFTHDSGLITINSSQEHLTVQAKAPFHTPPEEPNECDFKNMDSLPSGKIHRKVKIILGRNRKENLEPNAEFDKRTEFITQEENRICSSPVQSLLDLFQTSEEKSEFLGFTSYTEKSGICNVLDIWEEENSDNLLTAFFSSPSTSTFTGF
- ASSAY_NAME: Cdc7 Biochemical Assay Method 3: Cdc7/Dbf4 Enzyme TR-FRET Assay measuring pS40MCM2
- CONDITION: 1 μM ATP, read-out: Biochemical Method 3 (pIC50) (converted)

MOLECULE | IC50 [nM]
O=c1[nH]c(-c2ccnc(F)c2)nc(OC2CCNCC2)c1Cl [Compound 329] | 0.617
CO[C@H]1CCCN(c2nc(-c3ccnc(F)c3)[nH]c(=O)c2Cl)C1 [Compound 283] | 5.37
O=c1[nH]c(-c2ccnc(F)c2)nc(N2CCCC3(CCNC3)C2)c1Cl (centres unmarked) [Compound 258] | 0.832
O=C1CCCN(c2nc(-c3ccnc(F)c3)[nH]c(=O)c2Cl)CC1 [Compound 203] | 2.95
CC1(C)CN(c2nc(-c3ccnc(F)c3)[nH]c(=O)c2Cl)CCO1 [Compound 300] | 3.02
O=c1[nH]c(-c2ccnc(F)c2)nc(N2CCC3NCCCC32)c1Cl (centres unmarked) [Compound 223] | 2.88
O=c1[nH]c(-c2ccnc(F)c2)nc(N2CCCC3(CCCN3)C2)c1Cl (centres unmarked) [Compound 250] | 9.77
O=c1[nH]c(-c2ccnc(F)c2)nc(N2CCCN(CC(F)(F)F)CC2)c1Cl [Compound 299] | 6.46
N#C[C@@H]1CNCCN1c1nc(-c2ccnc(F)c2)[nH]c(=O)c1Cl [Compound 345] | 1.29
CC(C)NC(=O)C1CCN(c2nc(-c3ccnc(F)c3)[nH]c(=O)c2Cl)CC1 [Compound 255] | 7.08
O=c1[nH]c(-c2ccnc(F)c2)nc(SC2CCOCC2)c1Cl [Compound 191] | 3.72
O=c1[nH]c(-c2ccnc(F)c2)nc(N2CCC3(CCCN3)C2)c1Cl (centres unmarked) [Compound 217] | 45.7
N[C@@H]1CCN(c2nc(-c3ccnc(F)c3)[nH]c(=O)c2Cl)C1 [Compound 324] | 14.5
O=c1[nH]c(-c2ccnc(F)c2)nc(N2CCC3(CCNC3)CC2)c1Cl [Compound 242] | 1.15
NC[C@H]1CCN(c2nc(-c3ccnc(F)c3)[nH]c(=O)c2Cl)C1 [Compound 219] | 6.76
O=c1[nH]c(-c2ccnc(F)c2)nc(N2CCC3(COC3)C2)c1Cl [Compound 284] | 2.09
NC(=O)CN1CCN(c2nc(-c3ccnc(F)c3)[nH]c(=O)c2Cl)CC(F)(F)C1 [Compound 414] | 0.891
C[C@H]1COC[C@H](C)N1c1nc(-c2ccnc(F)c2)[nH]c(=O)c1Cl [Compound 342] | 129
CN(c1nc(-c2ccnc(F)c2)[nH]c(=O)c1Cl)C1CCOCC1 [Compound 229] | 8.51
O=c1[nH]c(-c2ccnc(F)c2)nc(N2CCN3CCC2CC3)c1Cl [Compound 293] | 0.363
O=c1[nH]c(-c2ccnc(F)c2)nc(OC2CNC2)c1Cl [Compound 194] | 14.5
O=c1[nH]c(-c2ccnc(F)c2)nc(N2CCn3cncc3C2)c1Cl [Compound 346] | 1.05
C[C@@H]1COC[C@H](C)N1c1nc(-c2ccnc(F)c2)[nH]c(=O)c1Cl [Compound 343] | 6.76
C[C@@H]1CN(c2nc(-c3ccnc(F)c3)[nH]c(=O)c2Cl)CCO1 [Compound 337] | 1.12
CC1CCN(c2nc(-c3ccnc(F)c3)[nH]c(=O)c2Cl)CCN1 (centres unmarked) [Compound 303] | 2.09
O=c1[nH]c(-c2ccnc(F)c2)nc(N2CC3(CNC3)C2)c1Cl [Compound 198] | 66.1
O=c1[nH]c(-c2ccnc(F)c2)nc(N2CCOCC(O)C2)c1Cl (centres unmarked) [Compound 207] | 1.29
NC(=O)[C@H]1CCN(c2nc(-c3ccnc(F)c3)[nH]c(=O)c2Cl)C1 [Compound 251] | 4.07
NC1CN(c2nc(-c3ccnc(F)c3)[nH]c(=O)c2Cl)CCC1F (mixture of isomers) [Compound 252] | 0.617
C[C@@H]1COCCN1c1nc(-c2ccnc(F)c2)[nH]c(=O)c1Cl [Compound 328] | 0.575
C[C@@H]1CCCN1c1nc(-c2ccnc(F)c2)[nH]c(=O)c1Cl [Compound 279] | 0.724
O=C1CCN(c2nc(-c3ccnc(F)c3)[nH]c(=O)c2Cl)CC1 [Compound 234] | 1.38
CC(C)(O)[C@H]1CN(c2nc(-c3ccnc(F)c3)[nH]c(=O)c2Cl)CCN1 [Compound 187] | 1.86
CN[C@H]1CCN(c2nc(-c3ccnc(F)c3)[nH]c(=O)c2Cl)C1 [Compound 271] | 1.48
O=c1[nH]c(-c2ccnc(F)c2)nc(N2CCC3NCCC32)c1Cl (centres unmarked) [Compound 243] | 2
